Data origin: ChEMBL document CHEMBL4732090

Protocol notes: Selectivity index, ratio of IC50 for rat L6 cells to IC50 for Trypanosoma brucei rhodesiense STIB900
Type: toxicity
Applied conditions: read-out: Ratio IC50
Recorded metric: selectivity ratio

>>> result("CC1(C)C(Cc2ccc(C#N)cc2)C(=[N+]2CCCC2)C=CN1Cc1ccccc1 (stereo not given)")
"> 19.6"
>>> result("CC1(C)C(Cc2ccccc2)C(=[N+]2CCCC2)C=CN1Cc1ccc([N+](=O)[O-])cc1 (racemic)")
200
>>> result("CC1(C)C(Cc2ccc([N+](=O)[O-])cc2)C(=[N+]2CCCC2)C=CN1Cc1ccccc1 (racemic)")
37.9
>>> result("CC1(C)C(Cc2c(Cl)cccc2Cl)C(=[N+]2CCCC2)C=CN1Cc1c(Cl)cccc1Cl (racemic)")
37.9
>>> result("CC1(C)C(Cc2ccc(C(F)(F)F)cc2)C(=[N+]2CCCC2)C=CN1Cc1ccccc1 (racemic)")
268
